Hi there, I'd appreciate the recorded CC50 at 72 h for every entry that follows.
ASSAY REMARKS: CC50 determination in Vero E6 cells
CONDITION DETAILS: African green monkey, CC50% in µg/mL, Vero E6
Where a name gives a salt, the structure may show the parent alone.
Answers are plain numbers, in µg/mL.

Worked cases, CC50 at 72 h given:
- COMPOUND: "CCN(CCO)CCCC(C)Nc1ccnc2cc(Cl)ccc12 (stereo not shown) [Hydroxychloroquine sulfate (HCQ), Hydroxychloroquine sulfate]"
  UNIT OF MEASURE: "µg/mL"
  CC50 at 72 h: 23.2
- COMPOUND: "CCN(CC)CCCC(C)Nc1ccnc2cc(Cl)ccc12 (stereo not shown) [Chloroquine diphosphate (CQ), Chloroquine diphosphate]"
  UNIT OF MEASURE: "µg/mL"
  CC50 at 72 h: 17
- COMPOUND: "COc1cc(NC(C)CCCN)c2ncccc2c1 (stereo not shown) [Primaquine Phosphate (PQ), Primaquine Phosphate]"
  UNIT OF MEASURE: "µg/mL"
  CC50 at 72 h: 5.5

What the record says about C[C@H]1[C@H](OC(=O)CCC(=O)O)O[C@@H]2O[C@@]3(C)CC[C@H]4[C@H](C)CC[C@@H]1[C@@]24OO3 [Artesunate injection (ASi), Artesunate] : CC50 at 72 h is 27
